Where do these numbers come from? They come from the supplement of paper PMC7877785.

assay: self-splicing fitness, log relative to wild type (ln ratio); higher = more splicing; Tetrahymena group I intron in knt gene, E. coli kanamycin selection, DiMSum; sequences stand for … in CUCUCU…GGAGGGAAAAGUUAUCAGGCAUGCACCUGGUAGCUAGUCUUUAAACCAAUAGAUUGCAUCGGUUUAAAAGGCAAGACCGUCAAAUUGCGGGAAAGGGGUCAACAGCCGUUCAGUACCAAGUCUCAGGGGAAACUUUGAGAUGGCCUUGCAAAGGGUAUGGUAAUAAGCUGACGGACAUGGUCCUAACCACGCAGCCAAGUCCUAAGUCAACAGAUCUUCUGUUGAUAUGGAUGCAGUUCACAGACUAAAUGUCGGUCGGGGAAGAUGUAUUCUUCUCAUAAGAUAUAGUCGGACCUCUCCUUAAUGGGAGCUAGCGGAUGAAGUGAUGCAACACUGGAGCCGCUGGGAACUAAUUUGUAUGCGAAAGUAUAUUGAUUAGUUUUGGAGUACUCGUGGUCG; details: 30 °C;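 further: selection with 25 µg/mL kanamycin versus none on LB agar overnight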
Result type: self-splicing fitness (ln)

self-splicing fitness (ln) reading for UCAGAGCAAUAUUACGAUCA : -3.07

self-splicing fitness (ln) reading for GCUCAGCAAUAUUACGCACA : -1.05

self-splicing fitness (ln) reading for UGAGAGCAAUAUUACGUUAG : -3.68

self-splicing fitness (ln) reading for ACCUAGCAAUAUUACGGCGC : -0.607

self-splicing fitness (ln) reading for GGUCAGCAAUAUUACGCUCG : -0.0238

self-splicing fitness (ln) reading for UUUAAGCAAUAUUACGUAGA : -0.521
